experiment: Cytotoxicity against mouse B16F10 cells assessed as growth inhibition after 72 hrs by MTT colorimetric assay; type: functional, cell-based; details: B16-F10, 72 h
measurement-type: pIC50
Hey, just a heads up that pIC50 is the negative log base 10 of the concentration in molar.

Recorded pIC50, per entry:
[
  {
    "structure-smiles-string": "COc1cc(OC)cc(C(=O)NNC(=S)Nc2csc(-c3ccc(C)cc3)c2)c1",
    "quantitative-readout": 4.89
  },
  {
    "structure-smiles-string": "COc1ccc(C(=O)NNC(=S)Nc2csc(-c3ccc(C)cc3)c2)cc1",
    "quantitative-readout": 5.05
  },
  {
    "structure-smiles-string": "Cc1ccc(C(=O)NNC(=S)Nc2csc(-c3ccccc3)c2)cc1",
    "quantitative-readout": 4.62
  }
]

// query Could you share which pIC50 value was measured for COc1cc(C(=O)NNC(=S)Nc2csc(-c3ccc(C)cc3)c2)cc(OC)c1OC ?
// result 4.89

// query pIC50 for Cc1ccc(C(=O)NNC(=S)Nc2csc(-c3ccc(C)cc3)c2)cc1 ?
// result 4.70

====

experiment: Cytotoxicity against human NHLF cells assessed as growth inhibition after 72 hrs by MTT colorimetric assay; assay type: cell-based
measurement-type: pIC50
// returns pIC50 (minus log10 of molar concentration), number only

// query Name the recorded pIC50 for COc1ccc(C(=O)NNC(=S)Nc2csc(-c3ccc(C)cc3)c2)cc1 .
// result 4.55

====

Parameter: pIC50. Scope: all listed entries.
experiment: Cytotoxicity against mouse B16F10 cells assessed as growth inhibition after 72 hrs by MTT colorimetric assay; assay type: functional, cell-based; conditions: B16-F10, 72 h
By convention, pIC50 is the negative base-10 log of a molar concentration.

Take a look at these entries with their results.
[
  {
    "structure-smiles-string": "COc1ccc(C(=O)NNC(=S)Nc2csc(-c3ccc(C)cc3)c2)cc1OC",
    "pIC50": 5.15
  },
  {
    "structure-smiles-string": "Cc1ccc(-c2cc(Nc3nnc(-c4ccc(O)cc4)s3)cs2)cc1",
    "pIC50": 5.22
  }
]

// query May I ask what pIC50 has been recorded for COc1cc(OC)cc(C(=O)NNC(=S)Nc2csc(-c3ccccc3)c2)c1 ?
// result 4.52

// query Which measured pIC50 value corresponds to COc1cc(-c2nnc(Nc3csc(-c4ccc(C)cc4)c3)s2)cc(OC)c1OC ?
// result 4.92

// query Fill in: pIC50 of Cc1ccc(-c2nnc(Nc3csc(-c4ccccc4)c3)s2)cc1 is ___
// result 5.40

// query I'd like to know its pIC50. The molecule in question is Oc1ccc(-c2nnc(Nc3csc(-c4ccccc4)c3)s2)cc1
// result 5.10

// query Entry COc1ccc(-c2nnc(Nc3csc(-c4ccccc4)c3)s2)cc1 has what pIC50?
// result 5.22

====

assay: Cytotoxicity against human U373 cells assessed as growth inhibition after 72 hrs by MTT colorimetric assay; assay type: functional, cell-based, U-373MG ATCC; conditions: U373 MG
pIC50 reference
Scale note: pIC50 = -log10(concentration in M).

Previously resolved entries follow.
[
  {
    "structure-smiles-string": "COc1cc(OC)cc(-c2nnc(Nc3csc(-c4ccccc4)c3)s2)c1",
    "pIC50": 4.04
  },
  {
    "structure-smiles-string": "Cc1ccc(C(=O)NNC(=S)Nc2csc(-c3ccccc3)c2)cc1",
    "pIC50": 4.21
  }
]

// query Look at this compound and give its reported pIC50. Cc1ccc(-c2cc(NC(=S)NNC(=O)c3ccc(O)cc3)cs2)cc1
// result 4.19

====

test: Cytotoxicity against human U373 cells assessed as growth inhibition after 72 hrs by MTT colorimetric assay; type: functional, cell-based, U-373MG ATCC; settings: U373 MG
Reported IC50 is given for each of the following compounds.
Express the result in µM but write the number alone.

Some compounds with recorded IC50:
[
  {
    "structure-smiles-string": "COc1ccc(C(=O)NNC(=S)Nc2csc(-c3ccc(C)cc3)c2)cc1OC",
    "quantitative-readout": 47
  },
  {
    "structure-smiles-string": "Cc1ccc(C(=O)NNC(=S)Nc2csc(-c3ccc(C)cc3)c2)cc1",
    "quantitative-readout": 38
  },
  {
    "structure-smiles-string": "COc1ccc(-c2nnc(Nc3csc(-c4ccccc4)c3)s2)cc1",
    "quantitative-readout": 92
  },
  {
    "structure-smiles-string": "COc1ccc(C(=O)NNC(=S)Nc2csc(-c3ccccc3)c2)cc1",
    "quantitative-readout": 41
  },
  {
    "structure-smiles-string": "Cc1ccc(-c2cc(Nc3nnc(-c4ccc(O)cc4)s3)cs2)cc1",
    "quantitative-readout": 8
  },
  {
    "structure-smiles-string": "COc1cc(C(=O)NNC(=S)Nc2csc(-c3ccccc3)c2)cc(OC)c1OC",
    "quantitative-readout": 44
  }
]

// query Which IC50 reading was recorded for the compound COc1cc(OC)cc(C(=O)NNC(=S)Nc2csc(-c3ccccc3)c2)c1 ?
// result 40

// query Any idea what IC50 was measured for COc1cc(C(=O)NNC(=S)Nc2csc(-c3ccc(C)cc3)c2)cc(OC)c1OC ?
// result 47

====

system: MCF7; assay: Cytotoxicity against human MCF7 cells assessed as growth inhibition after 72 hrs by MTT colorimetric assay; assay type: functional, cell-based; conditions: MCF7, 72 h
Class membership depends on IC50 alone; the intervals are c1 = under 30 µM, c2 = from 30 µM up to 40 µM, c3 = 40 µM and over

[
  {
    "structure-smiles-string": "Cc1ccc(C(=O)NNC(=S)Nc2csc(-c3ccc(C)cc3)c2)cc1",
    "system-name": "MCF7",
    "assigned-class": "c1"
  },
  {
    "structure-smiles-string": "O=C(NNC(=S)Nc1csc(-c2ccccc2)c1)c1ccc(O)cc1",
    "system-name": "MCF7",
    "assigned-class": "c3"
  },
  {
    "structure-smiles-string": "Oc1ccc(-c2nnc(Nc3csc(-c4ccccc4)c3)s2)cc1",
    "system-name": "MCF7",
    "assigned-class": "c1"
  },
  {
    "structure-smiles-string": "COc1ccc(C(=O)NNC(=S)Nc2csc(-c3ccc(C)cc3)c2)cc1",
    "system-name": "MCF7",
    "assigned-class": "c1"
  },
  {
    "structure-smiles-string": "COc1cc(C(=O)NNC(=S)Nc2csc(-c3ccccc3)c2)cc(OC)c1OC",
    "system-name": "MCF7",
    "assigned-class": "c3"
  },
  {
    "structure-smiles-string": "COc1ccc(-c2nnc(Nc3csc(-c4ccccc4)c3)s2)cc1",
    "system-name": "MCF7",
    "assigned-class": "c3"
  }
]

// query Input Cc1ccc(-c2cc(NC(=S)NNC(=O)c3ccc(O)cc3)cs2)cc1 ; output its category
// result c3

// query Textbook exercise: identify the category of the molecule given here, Cc1ccc(-c2cc(Nc3nnc(-c4ccc(O)cc4)s3)cs2)cc1 , according to its measured value.
// result c1

// query Classify this molecule: Cc1ccc(-c2nnc(Nc3csc(-c4ccccc4)c3)s2)cc1
// result c2

// query GET /class?item= COc1ccc(C(=O)NNC(=S)Nc2csc(-c3ccccc3)c2)cc1
// result c2

// query Class (by measured IC50) for COc1cc(C(=O)NNC(=S)Nc2csc(-c3ccc(C)cc3)c2)cc(OC)c1OC
// result c2

====

assay: Cytotoxicity against human U373 cells assessed as growth inhibition after 72 hrs by MTT colorimetric assay; format: functional, cell-based, U-373MG ATCC; details: U373 MG
Known IC50 of a selection of compounds

Past entries and their recorded results:
[
  {
    "structure-smiles-string": "COc1ccc(C(=O)NNC(=S)Nc2csc(-c3ccccc3)c2)cc1OC",
    "IC50": "59 µM"
  },
  {
    "structure-smiles-string": "Oc1ccc(-c2nnc(Nc3csc(-c4ccccc4)c3)s2)cc1",
    "IC50": "58 µM"
  },
  {
    "structure-smiles-string": "COc1ccc(-c2cc(Nc3nnc(-c4ccc(C)cc4)s3)cs2)cc1",
    "IC50": "> 100 µM"
  }
]

// query IC50 value for entry COc1cc(OC)cc(C(=O)NNC(=S)Nc2csc(-c3ccc(C)cc3)c2)c1
// result 41 µM

// query May I ask what IC50 has been recorded for COc1ccc(C(=O)NNC(=S)Nc2csc(-c3ccc(C)cc3)c2)cc1 ?
// result 19 µM

====

assay: Cytotoxicity against mouse B16F10 cells assessed as growth inhibition after 72 hrs by MTT colorimetric assay; format: functional, cell-based; settings: B16-F10, 72 h
measurement-type: IC50 (µM)
The response must be a number in µM with no trailing unit.

Worked examples, 5 compounds total:
[
  {
    "structure-smiles-string": "COc1ccc(C(=O)NNC(=S)Nc2csc(-c3ccccc3)c2)cc1OC",
    "IC50, µM": 9
  },
  {
    "structure-smiles-string": "Cc1ccc(-c2cc(NC(=S)NNC(=O)c3ccc(O)cc3)cs2)cc1",
    "IC50, µM": 48
  },
  {
    "structure-smiles-string": "O=C(NNC(=S)Nc1csc(-c2ccccc2)c1)c1ccc(O)cc1",
    "IC50, µM": 40
  },
  {
    "structure-smiles-string": "COc1cc(C(=O)NNC(=S)Nc2csc(-c3ccccc3)c2)cc(OC)c1OC",
    "IC50, µM": 32
  },
  {
    "structure-smiles-string": "COc1ccc(C(=O)NNC(=S)Nc2csc(-c3ccccc3)c2)cc1",
    "IC50, µM": 33
  }
]

Let us examine a further case.
// query Looking for the measured IC50 of COc1ccc(-c2cc(NC(=S)NNC(=O)c3ccc(C)cc3)cs2)cc1 , can you help?
// result 7
